tested_target: Human αvβ6 (Homo sapiens, UniProt P06756+P18564)
Construct: purchased Bio-Techne
Sequence (P06756 31-992 limits assumed): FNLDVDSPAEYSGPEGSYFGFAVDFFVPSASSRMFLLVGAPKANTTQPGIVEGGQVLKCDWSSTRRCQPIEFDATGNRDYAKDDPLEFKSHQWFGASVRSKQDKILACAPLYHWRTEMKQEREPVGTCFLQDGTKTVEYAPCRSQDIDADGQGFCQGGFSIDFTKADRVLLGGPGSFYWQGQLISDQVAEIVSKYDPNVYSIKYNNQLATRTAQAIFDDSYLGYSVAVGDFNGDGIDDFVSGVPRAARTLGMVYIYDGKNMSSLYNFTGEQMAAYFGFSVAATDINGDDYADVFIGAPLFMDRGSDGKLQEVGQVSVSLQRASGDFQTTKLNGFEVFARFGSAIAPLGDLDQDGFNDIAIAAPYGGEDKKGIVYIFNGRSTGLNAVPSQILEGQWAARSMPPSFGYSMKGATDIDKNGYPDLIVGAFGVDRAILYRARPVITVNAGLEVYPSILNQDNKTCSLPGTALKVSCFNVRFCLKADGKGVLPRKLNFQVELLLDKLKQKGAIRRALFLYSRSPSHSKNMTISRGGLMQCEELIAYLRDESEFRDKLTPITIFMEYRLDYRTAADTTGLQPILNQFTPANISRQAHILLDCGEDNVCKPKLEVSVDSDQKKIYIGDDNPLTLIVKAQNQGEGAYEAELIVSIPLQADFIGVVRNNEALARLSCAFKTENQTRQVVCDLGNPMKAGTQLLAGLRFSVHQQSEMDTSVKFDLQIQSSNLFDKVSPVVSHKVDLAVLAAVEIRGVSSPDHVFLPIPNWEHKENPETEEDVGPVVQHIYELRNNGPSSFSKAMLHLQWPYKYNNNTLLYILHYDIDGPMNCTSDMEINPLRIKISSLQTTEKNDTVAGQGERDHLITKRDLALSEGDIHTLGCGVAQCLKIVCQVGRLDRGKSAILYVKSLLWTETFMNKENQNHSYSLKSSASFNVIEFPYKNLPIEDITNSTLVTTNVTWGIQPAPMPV
Sequence (P18564 22-707 limits assumed): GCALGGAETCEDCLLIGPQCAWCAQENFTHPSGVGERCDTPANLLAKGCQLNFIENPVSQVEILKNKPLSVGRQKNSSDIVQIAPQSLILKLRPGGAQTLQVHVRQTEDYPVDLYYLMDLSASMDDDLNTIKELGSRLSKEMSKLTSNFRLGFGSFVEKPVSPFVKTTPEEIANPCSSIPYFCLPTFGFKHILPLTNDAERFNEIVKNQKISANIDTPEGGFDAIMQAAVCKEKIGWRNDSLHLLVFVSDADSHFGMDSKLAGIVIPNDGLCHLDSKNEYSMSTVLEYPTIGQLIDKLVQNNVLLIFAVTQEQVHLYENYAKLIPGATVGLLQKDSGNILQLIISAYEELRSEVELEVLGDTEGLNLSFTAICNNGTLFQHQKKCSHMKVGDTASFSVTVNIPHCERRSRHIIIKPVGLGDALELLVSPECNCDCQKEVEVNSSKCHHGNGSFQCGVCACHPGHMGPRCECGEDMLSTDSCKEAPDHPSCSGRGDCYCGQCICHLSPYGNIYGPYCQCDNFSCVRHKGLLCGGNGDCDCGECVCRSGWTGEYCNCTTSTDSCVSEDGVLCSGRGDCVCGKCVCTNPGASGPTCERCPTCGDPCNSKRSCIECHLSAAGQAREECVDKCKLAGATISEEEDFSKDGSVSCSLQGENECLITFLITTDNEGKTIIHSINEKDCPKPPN
experiment_description: competitive integrin binding assay (isoDGR-peroxidase probe), αvβ6-coated plates
measurement_parameters: competition with isoDGR-peroxidase on αvβ6-coated plates; mean ± SE of n independent experiments (n in the column beside)
pKi: −log10 of the molar value. Ends that are not written are not given here.
assay_readout: pKi

Return reported pKi; argument: CIRLDLELINFQSDLQHELLKTRLRG [5a-Scr]
< 6.70
